System: Trypanosoma brucei
Assay: In vitro inhibitory concentration against Trypanosoma brucei rhodesiense strain KETRI 269
Type: functional, organism-based
readout label: IC50 (nM)

smiles_string=Nc1ncnc2c1ccn2[C@H]1C[C@@H](O)[C@H](O)[C@@H]1O result=165

###

Tested on: Trypanosoma brucei
Assay: In vitro inhibitory concentration against Trypanosoma brucei LAB 110 EATRO test strain
Type: functional, organism-based
pIC50: −log10 of the molar value.
readout label: pIC50

smiles_string=Nc1ncnc2c1ccn2[C@H]1C[C@@H](O)[C@H](O)[C@@H]1O result=6.78

###

Test system: Trypanosoma brucei
Assay: In vitro inhibitory concentration against Trypanosoma brucei rhodesiense strain KETRI 243-As-103
Format: functional, organism-based
readout label: IC50

smiles_string=Nc1ncnc2c1ccn2[C@H]1C[C@@H](O)[C@H](O)[C@@H]1O subject_of_test="Trypanosoma brucei" result="5.3 µM"
